Values from PubChem BioAssay AID624302

- SUBJECT OF TEST: Nuclear receptor subfamily 0 group B member 1 (Homo sapiens) (UniProt P51843)
- Sequence (P51843 207-470 limits assumed): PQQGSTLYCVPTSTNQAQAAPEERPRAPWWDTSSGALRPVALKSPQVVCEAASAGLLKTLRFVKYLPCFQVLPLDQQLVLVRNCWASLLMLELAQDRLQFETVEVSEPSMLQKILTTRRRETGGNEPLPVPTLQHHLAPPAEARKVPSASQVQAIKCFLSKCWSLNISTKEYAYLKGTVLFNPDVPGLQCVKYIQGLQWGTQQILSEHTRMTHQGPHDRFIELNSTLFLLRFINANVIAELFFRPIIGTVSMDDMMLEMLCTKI
- TEST SUMMARY: relief of Gal4-DAX1 luciferase repression – cell-based, luminescence, HEK293, powder samples, assay provider, dose response (AID 624302)
- SETTINGS: luciferase reporter luminescence, at 100 µM, stronger effect = higher value
ENDPOINT LABEL: relative luminescence ratio

Would you please look over these solved cases?
- COMPOUND: "Cc1cc(C(=O)Nc2ccc3c(c2)OCO3)cs1"
  relative luminescence ratio: 0.26
- COMPOUND: "COc1ccc(OC)c(C(C)NC(=O)c2cccc(C)c2)c1 (stereo unspecified)"
  relative luminescence ratio: 0.23
- COMPOUND: "Cn1c(=O)n(C)c2cc(C(=O)Nc3ccc4c(c3)OCCO4)ccc21"
  relative luminescence ratio: 2.25
- COMPOUND: "COc1ccc(OC)c(C(C)NC(=O)c2cccc3ccccc23)c1 (stereo unspecified)"
  relative luminescence ratio: 0.01

I. COc1cccc(C(=O)Nc2ccc3c(c2)OCO3)c1
II. COc1ccc(OC)c(C(C)NC(=O)c2cccc(F)c2)c1 (stereo unspecified)
Request: Among I and II , which shows a numerically higher relative luminescence ratio result? Refer to your chosen item by its label in the answer.
Response: II
(II: 0.63, I: 0.16)

----------
- SUBJECT OF TEST: Nuclear receptor subfamily 0 group B member 1 (Homo sapiens) (UniProt P51843)
- TEST SUMMARY: relief of Gal4-DAX1 luciferase repression – cell-based, luminescence, HEK293, powder samples, assay provider, dose response (AID 624302)
- SETTINGS: luciferase reporter luminescence, at 100 µM, stronger effect = higher value
ENDPOINT LABEL: relative luminescence ratio

- COMPOUND: "O=C(Nc1ccc2c(c1)OCCO2)c1ccc2ccccc2c1"
  relative luminescence ratio: 0.02
- COMPOUND: "CSc1ccccc1C(=O)Nc1ccc2c(c1)OCO2"
  relative luminescence ratio: 0.41
- COMPOUND: "COc1ccc(OC)c(C(C)NC(=O)c2ccccc2F)c1 (stereo unspecified)"
  relative luminescence ratio: 0.39

1. O=C(Cc1cccs1)Nc1ccc2c(c1)OCO2
2. COc1ccc(OC)c(C(C)NC(=O)c2ccc(C(C)(C)C)cc2)c1 (stereo unspecified)
Request: Exercise: compare 1 and 2 ; which one has the greater relative luminescence ratio? Mark your answer with the label of the selected entry.
Response: 1
(1: 0.62, 2: 0.1)

----------
- SUBJECT OF TEST: Nuclear receptor subfamily 0 group B member 1 (Homo sapiens) (UniProt P51843)
- TEST SUMMARY: relief of Gal4-DAX1 luciferase repression – cell-based, luminescence, HEK293, powder samples, assay provider, dose response (AID 624302)
- SETTINGS: luciferase reporter luminescence, at 100 µM, stronger effect = higher value
ENDPOINT LABEL: relative luminescence ratio

The cases that follow already have their relative luminescence ratio on record.
- COMPOUND: "O=C(Nc1ccc2c(c1)OCO2)c1cccs1"
  ENDPOINT LABEL: "relative luminescence ratio"
  READOUT NUMBER: 0.38
- COMPOUND: "COc1ccc(OC)c(C(C)NC(=O)c2ccc(F)cc2)c1 (configuration not stated)"
  ENDPOINT LABEL: "relative luminescence ratio"
  READOUT NUMBER: 0.33

I. COc1cccc(C(=O)Nc2ccc3c(c2)OCCO3)c1
II. COc1ccc(OC)c(C(C)NC(=O)c2c(F)cccc2Cl)c1 (configuration not stated)
III. Cc1occc1C(=O)Nc1ccc2c(c1)OCO2
IV. O=C(Nc1ccc2c(c1)OCO2)c1ccc(C2SCC(=O)N2Cc2ccco2)cc1 (configuration not stated)
Request: Ranking field: relative luminescence ratio; order: falling. I'd appreciate it if you listed the labels in the requested order.
Response: II, III, I, IV
(II: 0.51, III: 0.21, I: 0.02, IV: 0.01)
